Assay: recombinant barcode read abundance after kanamycin selection (control-corrected) (log10(CPM+1)); higher = more efficient recombination; sequences stand for … in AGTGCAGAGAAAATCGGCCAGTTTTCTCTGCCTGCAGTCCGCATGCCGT…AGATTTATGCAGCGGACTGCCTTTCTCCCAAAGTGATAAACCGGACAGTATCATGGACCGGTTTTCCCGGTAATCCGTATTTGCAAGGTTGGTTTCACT; site = the 11-nt target;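 also: IS621 recombinase and bridge RNA in Escherichia coli cells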
Lab note: compare recombinant barcode read abundance (log10) against 0.3. Equal or greater, write Criterion met. Smaller, write Criterion not met.

>  <Sequence record>
AGTAAGTCTTGGGTTCTAACCTGTTGCCT (site AGTAAGTCTAG)

>  <Label>
Criterion met

$$$$
>  <Sequence record>
CCTTCCACTTGGGTTCTAACCTGTTGCCT (site CCTTCCACTAG)

>  <Label>
Criterion not met

$$$$
>  <Sequence record>
GTTTCGACTTGGGTTCTAACCTGTTGCCT (site GTTTCGACTAG)

>  <Label>
Criterion not met

$$$$
>  <Sequence record>
CGCAGCCCTTGGGTTCTAACCTGTTGCAT (site CGCAGCCCTAT)

>  <Label>
Criterion met

$$$$
>  <Sequence record>
CTCGTCACTTGGGTTCTAACCTGTTGCCT (site CTCGTGACTAG)

>  <Label>
Criterion not met

$$$$
